Target: human serum albumin (HSA) (Homo sapiens, UniProt P02768)
Sequence (P02768 25-609): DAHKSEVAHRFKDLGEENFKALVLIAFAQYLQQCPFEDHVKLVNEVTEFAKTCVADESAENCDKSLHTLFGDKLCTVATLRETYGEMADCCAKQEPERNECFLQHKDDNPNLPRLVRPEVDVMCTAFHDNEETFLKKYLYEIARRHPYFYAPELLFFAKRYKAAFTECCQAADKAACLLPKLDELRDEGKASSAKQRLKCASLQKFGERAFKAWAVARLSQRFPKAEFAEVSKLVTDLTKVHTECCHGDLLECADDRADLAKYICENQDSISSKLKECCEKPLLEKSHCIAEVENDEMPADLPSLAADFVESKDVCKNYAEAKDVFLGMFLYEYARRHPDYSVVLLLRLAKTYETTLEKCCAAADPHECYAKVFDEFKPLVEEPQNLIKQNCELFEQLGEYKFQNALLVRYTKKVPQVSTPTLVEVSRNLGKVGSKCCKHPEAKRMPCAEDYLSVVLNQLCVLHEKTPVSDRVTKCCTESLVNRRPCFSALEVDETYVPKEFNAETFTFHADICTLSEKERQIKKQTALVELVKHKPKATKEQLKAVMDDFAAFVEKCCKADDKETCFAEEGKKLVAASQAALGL
Assay: Fluorescence ligand titration of HSA: quenching of intrinsic protein (Trp214) fluorescence, fitted Kd, n and FRET efficiency
Conditions: excitation 280 nm, IFE-corrected
# Eexp per record follows
MEASURED_PARAMETER: Eexp

C[C@H](C(=O)O)c1ccc2c(c1)[nH]c1ccc(Cl)cc12 [(S)‐carprofen] = 0.81
NCCNc1cccc2ccccc12 = 0.45
Oc1ccc2ccccc2c1 = 0.71
O=C(O)c1c2ccccc2nc2ccccc12 = 0.64
O=C(O)COc1cccc2cccnc12 = 0.68

###

Molecular target: human serum albumin (HSA) (Homo sapiens)
Experiment: Fluorescence ligand titration of HSA: quenching of intrinsic protein (Trp214) fluorescence, fitted Kd, n and FRET efficiency
Details: Kd, excitation 280 nm, no correction
# Kd per record follows
MEASURED_PARAMETER: Kd (µM)

C[C@H](C(=O)O)c1ccc2c(c1)[nH]c1ccc(Cl)cc12 [(S)‐carprofen] = 3
O=C(O)c1c2ccccc2nc2ccccc12 = 20.9
NCCNc1cccc2ccccc12 = 5.6
Oc1ccc2ccccc2c1 = 77
Oc1cccc2ccccc12 = 104
O=C(O)COc1cccc2cccnc12 = 75.9
